System: MS2 coat protein
Experiment: apparent KD of MS2 coat protein; designed switch direction (-1 OFF switch, 1 ON switch): 1; higher = weaker reporter binding
Details: Eterna round: R95; input ligand: none
Each entry below carries its reported apparent KD of MS2 coat protein.
Hi! Could you send only the number? It should be in nM, unit omitted.

// below: answered sequences
UAGAGAGGAAGCGAGGAUAUCGUGGGAGGAACAUGAGGAUCACCCAUGUGUGAUGUUGAGAGGGACGAGAAGGCGCUGGAAAUUA [JR_SS2_Sub081] (puzzle: Same State 2) | 174
CGUAGGUAGCUGGAGGAUAUUCGAGUGGUAACAUGAGGAUCACCCAUGUGGUGAGAGGAACAUGAGGAGAAGGCUAGCUGCCUGC [JL-ss2-3.15 JL mod] (puzzle: Same State 2) | 76.9
UUUAGUUGCGCGCAGGAUAUGUAUUAAUAUACAUGAGGAUCACCCAUGUGAGAUCGAAUAGAUCUACAGAAGGGCGAAUCGCGAC [Laonerce - 26] (puzzle: Same State 2) | 611
AGUCCAGCCUGAGCUGGACAAAAGCAUGUACAUGAGGAUCACCCAUGUCAUGUACAAGCUUUUUGCUCGUCUUGAUA [Zipper 49 - 8] (puzzle: Sensor for hsa-mir-208a) | 435
AGUCCAGCCUGAGCUGGACAAAAGCAUGUACAUGAGGAUCACCCAUGUCAUGUACAAGUUUUUUGCUCGUCUUAAAA [Zipper 46 - 11] (puzzle: Sensor for hsa-mir-208a) | 40.6
AUUAAACAUGAGGAUCACCCAUGUCAACAAAGUCGAGGAUAUGGGCAAAUAUAAUAAGAACCAGAAGGCGAAUAAU [salish99_ss1_r3_059] (puzzle: Same State 1) | 227
AACAAUCUAUCUGAGGAUAUCAUGAAAUAAACAUGAGGAUCACCCAUGUGCAGUAAAACUGCAUAUGAGAAGGCAGAUAGAUUGA [salish99_ss2_r3_039] (puzzle: Same State 2) | 1820
AGCUAUCGAAAACGAUAGCAAAAGUAUGUACAUGAGGAUCACCCAUGUCAUGUACAAGCUUUUUGCUCGUCUUAAAA [Zipper 23 - 10] (puzzle: Sensor for hsa-mir-208a) | 638

Attention now turns to another entry.
Item AGUCCUGAAAAGAAAAUAAUAAGUGAUGUACAUGAGGAUCACCCAUGUCAUGUACAAGUUCUAUGCUCGUCAUAUAA [Sensorship 24 - Jieux - Sensor for hsa-mir-208a] (puzzle: Sensor for hsa-mir-208a) has what recorded apparent KD of MS2 coat protein? 98.1

---

Test system: MS2 coat protein
Assay: apparent KD of MS2 coat protein; designed switch direction (-1 OFF switch, 1 ON switch): -1; higher = weaker reporter binding
Conditions: input ligand: FMN 200 uM
Each entry below carries its reported apparent KD of MS2 coat protein.
Hi! Could you send only the number? It should be in µM, unit omitted.

// below: answered sequences
AAAAAACAUGAGGAUCACCCAUGUGAGGAUAUCUGUAUUCAAUCCUCGGAUUGAAUACAGAGAAGGCACAUGGG [Ex1: 609] (Eterna round: R96, puzzle: Exclusion 1) | 0.0485
GCAGCAUAGAUGAAAAUCUGAUACAUGAGGAUCACCCAUGUUCAGGAUAUGGUCUGGAUUACAGGCCAGAAGGGAACAAGCUGC [Eli exng3 - 011] (Eterna round: R96, puzzle: Exclusion NG 3) | 0.014
AAUAUGUUAGGAUAUCUCAGCUGCCCGUAAACAGGCUAGCGAGAGAAGGGACAUGAGGAUCACCCAUGUCAUCC [Eternabot (Original) Solution 2] (Eterna round: R97, puzzle: Exclusion 4) | 0.0171

Item GAUGGUCGAGGAUAUGCACCAGGGUCGACCUACUAGCGAAGACAUGAGGAUCACCCAUGUAGAAGGUGGCGGUU [Eternabot (L2) Solution 75] (Eterna round: R97, puzzle: Exclusion 2) has what recorded apparent KD of MS2 coat protein? 0.0739

---

System: MS2 coat protein
Test: apparent KD of MS2 coat protein; higher = weaker reporter binding
Conditions: Eterna round: R107; input ligand: none
Reported Property: apparent KD of MS2 coat protein (nM)
Hi! Could you send only the number? It should be in nM, unit omitted.

GCACGGUAGUCGGCCGCCACUGAAACAUGUGUCUACAUGAGGAUCACCCAUGUGGGUGUGUUUUGUAGGACCGGGACAAGACCCG [#11 Same State - Tryptophan B] | 19
AGUCUUGAACGAAGGAGCGACGUACAUGAGGAUCACCCAUGUGGAGCGAAAGCUCCGUAACGUCAGGUAGGUCGCGUUCGAGACA [Omei Arginine B SS A v3] | 9.25
GGGCAAGAGGGAAGGAGCGUCGGCUGAGUAACAUGAGGAUCACCCAUGUAGCACAUAGUGUGGCAGGUAGGUCGCCCUCUGCCCU [SS-ArgB7] | 11.3
AUCUUUGAUGAUCUGGGAAAACCAGAUCGGCGAGGACCGGUACGGCCGCCACUCGUGUAUAAUAUACAUGAGGAUCACCCAUGUA [#20 Tryptophan A Same State] | 55.4
CGGCCCUCACCUGAGGAUCACCCGGGUGAUACCAGCCUGGAAACAGGCCCUUGGCAGCACCAGGUCAUCAAAGAUGACCAAGCCG [TheoAX 26 #OpenEnded #AlternativeMS2] | 97.5
AAUAACAAGAGGAUCACCCUUGUAAAAGAUACCAGAGUGAUGAUCCUCCCUUGGCAGCUUAACGCUGAUUGAUUACAAUCAGCGA | 35.5
ACAUGAGGAUCACCCAUGUAGCGUAGGGAAGGAGCGGAAUAAAGUCCAGGUAGGUCGCCCAUAUGAUGAUCUCACUUAUUAUCGA [#12 Same State - Arginine A] | 31
GGAUAGGACAGAAGGAGCGACAUGGCAGAAACUGCAAUCCUCCUACACGAGGAUCACCCGUGUCAGGUAGGUCGCUGUCCUAUCG [ArgXB 12 #Zipper #MS2Left #StaticStem #Blueprint] | 24.7
GCUAGGUCAUCGGCCGCCACUAACGACGGUUCGAACAUGAGGAUCACCCAUGUGCCACAUGCGCAUAGGACCGGGAUGACCUAGC [SSTB NP+V+V2 #6] | 19.5
UUUUUCGUAGGUUAAAGUUUAGAAACUGAAGGAGCGUGGUAAUACACAGGUAGGUCGCAGAUUUUACAUGAGGAUCACCCAUGUU [JR_ExcArginiA_Sub012] | 24.5

Attention now turns to another entry.
Item ACGAACGCACCUGAGGAUCACCCGGGUGAUACCAGCCUGGAAACAGGCCCUUGGCAGCACCUAAAAUAAAGGUAACGUUCGAAUA [TheoAX9 #MicroSwitchBubble #AlternativeMS2] has what recorded apparent KD of MS2 coat protein? 335

---

Test system: K4 kissing-loop RNA reporter;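 further: bound reporter read as fluorescence of individual clusters on recovered sequencing chips by microscopy, with normalized cluster intensities fitted with a binding model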
Experiment: apparent KD of K4 kissing-loop reporter; higher = weaker reporter binding
Settings: Eterna round: R107; input ligand: theophylline 20 uM
Labels assigned by apparent KD of K4 kissing-loop reporter range: interval 1: < 200 nM; interval 2: ≥ 200 nM and < 300 nM; interval 3: ≥ 300 nM

Use the examples below as a reference point.
UGUGCUGUGUAGUGUAAUGUUAUGCGGGAUACCAGAGUCUUUUUAUUCCCUUGGCAGCUUGAGUGAUGUUUGAUGCUGUUCUUGU [uujmullin] | interval 3
ACCUCACAGUGAUGUUGUGAGCCGAUAGUGAAGGAUAUUGUAAAGUCAAGAAGGUCAUGUCAGUCACAAAACGUUAAGCCUCGCA [theeternabot_exclusion_KL_FMN_A_19] | interval 2
UGACUGGAUGGAAGGAGCGCUAAACUCCUAGUGAUGUUAGGGAAACGAGACAAAGUCUCGAGGCAGGUAGGUCGCCAUCUAGUCU [FiskerMod 15 - Jieux - Same State - Arginine B] | interval 1
GUAGACGUGCCUUCAGUGAUGUUGAAGGAUACCAGAUGUUACCACAUCCCUUGGCAGCCUUGGGAUAACAGUGAGUCGGUAUAUG [Ontierso] | interval 2
AAUAAUAAUAAAUAUAGAUUGAUGAGCAAACGAGGACCGGUACGGCCGCCACUCGAGUGAUGUUCGAGAAGCUCAUCAAUCAUAA [AK4.6 Exc Tryptophan A] | interval 1

Form field 'band' for GCAGGAUGAGGAGGAGGAUGAAUUACUGAAGGAGCGCAUAUUUUUGCAGGUAGGUCGCGGUAAAGAAGUAUAGUGAUGUUAUAUA [SSArgA.K] interval 3

Form field 'band' for CGCGCCCGGCCGGAUACCAGUGACCCGCUGGGAACCGCGGGCCCAGAGUGAUGUUCGGGACACCCUUGGCAGCCGCCUGGGCGUG [#2 Same State - Theophylline B Attempt #5 (HarryS)] interval 3

Form field 'band' for CAUUGUACACGGUGCGAAGACCCAAUGGAUACCAGCAAUACAUUAUGCCCUUGGCAGCCAAGAGUGAUGUUCGACGGACUAGAUU [theeternabot_sameState_KL_Theo_A_4] interval 3

Form field 'band' for UGACAUUGCUCAGAUACCAGACAUGAGCAUCAGCCAUGUGCCAAAUAAACGUACAUAAAUGUCCCUUGGCAGCUGAGCAAUGUCU [TheoBX 11] interval 1

Form field 'band' for AAUAAAAUCACGGCCGCCACUGAUGUUAAUAUUAGCAGUGAUGUUGCUAUGUCGUUUUUCUUUAACAGGACCGGGUGAAUAUUUA [#22 K4 Tryptophan B Exclusion] interval 1

Form field 'band' for AAUAAAAUCACGGCCGCCACUGAUUAUUUUAUUAGGAGUGAUGUUCCUAUGACAGUAUGCCUUAACAGGACCGGGUGAAUAUUUA [#19 K4 Tryptophan B Exclusion] interval 1

Attribution: the supplement of paper PMC9170038
